// reported TGI for each item listed
Test system: SF-295 CNS
Test Description: NCI tumour cell line growth inhibition, 48 h
Metric: TGI

1. COc1ccc(Nc2nc3cc(C(F)(F)F)ccc3nc2C(=O)O)cc1; 35.7 µM
2. Cc1ccc(Cc2nc(=S)[nH][nH]2)cc1; > 100 µM
3. N#CC1(Cc2ccccc2[N+](=O)[O-])c2ccccc2C2C(N1C(=O)c1ccccc1)C2(Cl)Cl (stereo not drawn); > 100 µM
4. NS(=O)(=O)c1nnc(NS(=O)(=O)c2ccc(F)cc2)s1; > 100 µM
5. COC(=O)C1=C(C)C(=O)[C@H]2C(C(=O)OC)CCCC[C@@H]12 (stereo partly drawn); > 100 µM
6. COc1ccc(N2CCN(C(=O)c3ccc(C(F)(F)F)nc3Nc3cc(Cl)ccc3C)CC2)cc1; 27.9 µM
7. Cc1ccc(S(=O)(=O)NC(C(=O)O)C(C)C)cc1 (stereo not drawn); > 100 µM
8. CCCNc1[nH]c(C(=O)c2ccccc2)c(N)c1C(=S)Nc1ccccc1; > 100 µM
